Ref: patent US20150030595A1

- target entity: T1, ACVR2B-Fc fusion protein (human, UniProt Q13705 19-137)
- T1 construct: also called water-soluble ACVR2B
- T1 sequence: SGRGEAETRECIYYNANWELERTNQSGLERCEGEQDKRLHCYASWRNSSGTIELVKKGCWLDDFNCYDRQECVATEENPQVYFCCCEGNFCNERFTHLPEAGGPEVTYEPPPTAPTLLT
- assay summary: SPR (ProteOn XPR36), ACVR2B-Fc coated on the chip, Fc channel as reference

# binder, binding result
rows = [
    ("EGF3-6-Fc (DLK1 deletion mutant without the 1st and 2nd EGF-like repeat domains) (Fc fusion, also called 3M-Fc; not shown: human antibody Fc region of the pYK602-Fc vector and any SfiI-junction residues) DVRACSSAPCANNGTCVSLDDGLYECSCAPGYSGKDCQKKDGPCVINGSPCQHGGTCVDDEGRASHASCLCPPGFSGNFCEIVANSCTPNPCENDGVCTDIGGDFRCRCPAGFIDKTCSRPVTNCASSPCQNGGTCLQHTQVSYECLCKPEFTGLTCVKKRALSPQQVTRLPSGYGLAYRLTPGVHELPVQQPEHRILKVSMKELNKKTPLLTEG", "binds"),
    ("EGF4-6-Fc (Fc fusion, also called 4M-Fc; not shown: human antibody Fc region of the pYK602-Fc vector and any SfiI-junction residues) KDGPCVINGSPCQHGGTCVDDEGRASHASCLCPPGFSGNFCEIVANSCTPNPCENDGVCTDIGGDFRCRCPAGFIDKTCSRPVTNCASSPCQNGGTCLQHTQVSYECLCKPEFTGLTCVKKRALSPQQVTRLPSGYGLAYRLTPGVHELPVQQPEHRILKVSMKELNKKTPLLTEG", "binds"),
    ("EGF6-Fc (Fc fusion, also called 6M-Fc; not shown: human antibody Fc region of the pYK602-Fc vector and any SfiI-junction residues) PVTNCASSPCQNGGTCLQHTQVSYECLCKPEFTGLTCVKKRALSPQQVTRLPSGYGLAYRLTPGVHELPVQQPEHRILKVSMKELNKKTPLLTEG", "no binding"),
    ("JM-Fc (juxtamembrane region of DLK1, all six EGF-like repeat domains deleted) (Fc fusion, also called juxtamembrane region (JM); not shown: human antibody Fc of the pYK602-Fc vector and the SfiI junction residues between JM and Fc) KKRALSPQQVTRLPSGYGLAYRLTPGVHELPVQQPEHRILKVSMKELNKKTPLLTEG", "no binding"),
]
